Test system: Plasmodium falciparum
Assay Method Text: GSK_TCMDC: Inhibition of Plasmodium falciparum Dd2 in whole red blood cells, using parasite LDH activity as an index of growth. Test compounds present at 2uM
Type: functional
Field: Inhibition. Provide a value for each of the compounds that follow.
Numbers only, in %.

O=C(Cc1cc(=O)oc2cc(O)ccc12)N1CCC(CN2CCC(c3c[nH]c4ccccc34)CC2)CC1 : 0

Please state Inhibition for every compound in the list that follows.
1. FC(F)(F)c1cccc(N2CCC(CN3CCC(c4c[nH]c5ccccc45)CC3)CC2)n1.O=C(O)C(F)(F)F
2. O=C(NC1CCC(CN2CCC(c3c[nH]c4ccccc34)CC2)CC1)c1csc(-c2cccc(Cl)c2Cl)n1 (stereo unspecified)
3. CCCCCc1cc(O)c2c(c1)OC(C)(C)CC2C1=CCN(Cc2cccnc2)CC1.Cl.O (stereo unspecified)

### Response
10
41
97

Please state Inhibition for every compound in the list that follows.
1. CCOc1ccc2nccc([C@@H](O)[C@@H]3C[C@@H]4CCN3C[C@@H]4CC)c2c1.Cl [ETHYLHYDROCUPREINE HYDROCHLORIDE]
2. COc1cc(CC(C)NCC(O)c2cccc(C(F)(F)F)c2)ccc1OCc1ccccc1 (stereo unspecified)

### Response
1. 99
2. 71

----------
Test system: Plasmodium falciparum
Assay Method Text: GSK_TCMDC: Inhibition of Plasmodium falciparum 3D7 in whole red blood cells, using parasite LDH activity as an index of growth. Test compounds present at 2uM
Assay type: functional
Assign Inhibition to each entry below.
Answers are plain numbers, in %.

# count of solved cases: 4
CC[C@H]1CN2CC[C@@H]1C[C@H]2[C@H](O)c1cc(-c2ccc(Cl)c(Cl)c2)nc2ccc(O)cc12 : 98
CCN(Cc1ccccc1)CC(O)c1ccc(Cl)c(Cl)c1.Cl (stereo unspecified) : 96
COc1ccc2nc(-c3ccc(F)cc3)cc([C@@H](O)[C@@H]3C[C@@H]4CCN3CC4C=NO)c2c1 (stereo partly specified) : 100
CN(C)CCC(=O)c1ccccc1.Cl : 100

Parameters: items (list). Returns: Inhibition for each item.
1. CC(Cc1ccc(Sc2ccccc2)cc1)NCC(O)c1cccc(C(F)(F)F)c1 (stereo unspecified)
2. O=C(/C=C/c1ccc(Cl)c(Cl)c1)NCc1ccc(CN2CCC(c3c[nH]c4ccccc34)CC2)cc1

### Response
1: 99; 2: 100

----------
System: Plasmodium falciparum
Assay Method Text: GSK_TCMDC: Inhibition of Plasmodium falciparum Dd2 in whole red blood cells, using parasite LDH activity as an index of growth. Test compounds present at 2uM
Type: functional
Attribute Measured: Inhibition (%)
Answers are plain numbers, in %.

Use the examples below as a reference point.
CCOc1ccc(Br)cc1/C=C/C(=O)Nc1ccc2c(c1)C1CCC2N1C.O=C(O)C(F)(F)F (stereo unspecified) : 26
Cc1cc(C(=O)NC2CCN(CC3(c4ccc(Cl)cc4)CCC3)CC2)on1 : 95
COc1ccc(OC)c(C(O)CNC(C)C)c1.Cl (stereo unspecified) : 0
CCCc1c(C(=O)NC2CCC(CN3CCC(c4c[nH]c5ccccc45)CC3)CC2)cnn1-c1ccccc1 (stereo unspecified) : 7

Return reported Inhibition values for all items listed beneath this line.
1. COc1ccc(C(=O)c2ccc3[nH]cc(C4=CCN(C)CC4)c3c2)cc1
2. CC[C@@]1(O)C(=O)OCc2c1cc1n(c2=O)Cc2c-1nc1cc3c(cc1c2CN1CCOCC1)OCO3.O=C(O)C(F)(F)F

### Response
55
80
